Hey, just so you know, these numbers are from the supplement of paper PMC11865577.

Tested on: TO-3-N3 (biotin conjugate)
Assay: pull-down binding Z-score (relative to library population); higher = stronger binding
Details: RNA library: Library-2
MEASURED_QUANTITY: pull-down binding Z-score
A bare number is all that is needed in reply.

Record excerpt, results attached:
>>> print(df.to_string())
                              sequence_text          measured_quantity  recorded_number
0  CUUUCCUUUUUGUCUGUACUGGGAAG [hsa-mir-373]  pull-down binding Z-score           -0.365
1        GGUCCAGAACAAACCCAAGGAAAUUUUGGGGACC  pull-down binding Z-score            0.213

Field: next sequence
In: Tell me measured pull-down binding Z-score for UGCUUUUUGUUUCUAACAAAGCA [hsa-mir-4679-2] please.
Out: 0.272
